Would you kindly list growth for each of these compounds?
# System: PC-3 prostate
# assay.explanation: NCI-60 one-dose screen, 48 h (100 = growth as untreated, 0 = no growth, -100 = all killed)
# cond: 10 µM unless noted
The panel holds about 83,000 compounds, 20% with a hit somewhere; the sample as a whole holds those more often.
Express it in %; write the number only.

Given `CC(C)C1=CC2=C(C=O)C[C@@H]3[C@](C)(CCC[C@@]3(C)C(=O)OCC#CCN3CCCC3)[C@H]2CC1` , report its growth on PC-3 prostate.
54.9

Lab note: record growth of `CN1CCN(Cc2ccc(NC(=O)c3cncc(C#Cc4cnc(N)c5ccncc45)c3)cc2C(F)(F)F)CC1` tested on PC-3 prostate.
25.5

// fetch growth for `O=C(NNC(=O)N1c2ccccc2C=Cc2ccccc21)c1ccc2ccccc2c1` ; system: PC-3 prostate
74.9

# return growth of `O=S(=O)(NCCNc1nccc(-c2c(-c3ccc(O)cc3)nc3sccn23)n1)c1cccc2ccccc12` (system: PC-3 prostate)
97.5

Retrieve growth on PC-3 prostate; query `COc1cccc(/C=C2\Oc3cc(OCCCN4CCCC4)ccc3C2=O)c1OC`
91.9

Find growth for `CCCCN(CCCC)c1ccc(C(=N)c2ccc(N(CCCC)CCCC)cc2)cc1` on PC-3 prostate and write it down.
-94.4

Find the measured growth of C=C1CC2(OC1=O)C(=O)N(CCCN1C(=O)C3(CC(=C)C(=O)O3)c3ccccc31)c1ccccc12 (centres undefined) with PC-3 prostate as test system.
51.3

Specify growth for `COc1ccc(C(=O)N2NC(=O)/C(=C/c3ccccc3F)N=C2c2ccccc2)cc1` , system PC-3 prostate.
104

State, for PC-3 prostate, measured growth of the compound listed here: CC12CCC3C4(C)COC(c5ccco5)OC4CCC3(C)C1CC(C1=CCOC1=O)O2 (centres undefined)
90.5
